Hi there, I'd appreciate the recorded relative viability for every entry that follows.
System: NCI-H441
protocol_notes: relative viability (nuclei count vs DMSO), 5 days (fraction); higher = more cells survive
measurement_conditions: first compound 0.1265 µM
I only need the number, thanks.

Recall and state the measured relative viability for O=C(O)c1ccc(-c2c[nH]c3ncc(-c4ccccc4)cc23)cc1C1CCCC1 + Nc1nc2[nH]cc(CCc3ccc(C(=O)N[C@@H](CCC(=O)O)C(=O)O)cc3)c2c(=O)[nH]1 [Pemetrexed] (partner 0.2 µM) .
0.285

Respond only with relative viability recorded for O=C(O)c1ccc(-c2c[nH]c3ncc(-c4ccccc4)cc23)cc1C1CCCC1 + CC(C)C[C@H](NC(=O)[C@H](Cc1ccccc1)NC(=O)c1cnccn1)B(O)O [Bortezomib] (partner 0.002 µM)
0.59

Query relative viability for O=C(O)c1ccc(-c2c[nH]c3ncc(-c4ccccc4)cc23)cc1C1CCCC1 + NC(=O)Nc1cc(-c2cccc(F)c2)sc1C(=O)N[C@H]1CCCNC1 [AZD7762] (partner 0.2 µM)
1.23

For O=C(O)c1ccc(-c2c[nH]c3ncc(-c4ccccc4)cc23)cc1C1CCCC1 + CC1(C)CCC(c2ccc(Cl)cc2)=C(CN2CCN(c3ccc(C(=O)NS(=O)(=O)c4ccc(N[C@H](CCN5CCOCC5)CSc5ccccc5)c(S(=O)(=O)C(F)(F)F)c4)cc3)CC2)C1 [Navitoclax] (partner 0.5 µM) , write its relative viability.
0.583
